Item-by-item account of protein stability index
B1: ZNF649 (parent)
chain: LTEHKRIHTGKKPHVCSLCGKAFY

Variants of: B1
Test: protein stability index of a GFP-peptide fusion (GPS, HEK-293T) (PSI 1-6); higher = more stable;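 note: lentivirally expressed fusions sorted by FACS into six bins by GFP to DsRed ratio, PSI derived from sequencing read proportions per bin multiplied by bin number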
Conditions: c terminus: a fixed tail appended
Please give the numeric answer without any surrounding text.

Example results:
mutation_notation: H8P
protein stability index: 4.21
--
mutation_notation: P13Q
protein stability index: 2.26
--
mutation_notation: F23R
protein stability index: 2.69

Noted for K11F : its protein stability index reads 2.79

Noted for G10M : its protein stability index reads 3.35

Noted for P13F : its protein stability index reads 2.23

Noted for R6D : its protein stability index reads 2.93

Noted for K12N : its protein stability index reads 3.3

Noted for H4L : its protein stability index reads 2.11

Noted for K11P : its protein stability index reads 2.76

Noted for L1S : its protein stability index reads 2.81
